Test: Plasma pharmacokinetics after single intravenous and oral dose
Type: in vivo, male BALB/c mice
Details: male, BALB/c, mouse; IV 1 mg/kg, plasma
QUANTITY_MEASURED: AUC(0-inf) (ng·h/mL)
Field format: number, assumed ng·h/mL, no unit text.

Lab note: measured AUC(0-inf) of `Cn1c(=O)c2c(ncn2CC(=O)Nc2ccc(-c3ccccc3O)nn2)n(C)c1=O` was 1490

----------
Test: Plasma pharmacokinetics after single intravenous and oral dose
Assay type: in vivo, male BALB/c mice
Conditions: male, BALB/c, mouse, plasma, po, 5 mg/kg, PO 5 mg/kg, 8 hr; read-out: Plasma concentration, Mean
Experimental: The objective of this study was to investigate the plasma pharmacokinetics of Compound 1 in male BALB/c mice following a single intravenous and oral dose administration. A group of eighteen male mice were divided in to two groups as Group 1 and Group 2 with nine mice in each group. […] Concentrations of Compound 1 in mouse plasma samples were determined by fit-for-purpose LC-MS/MS method. […]
QUANTITY_MEASURED: concentration at 8 hr (ng/mL)
State just the number; it will be interpreted in ng/mL.

Lab book: concentration at 8 hr of `Cn1c(=O)c2c(ncn2CC(=O)Nc2ccc(-c3ccccc3O)nn2)n(C)c1=O` noted as 45.8

----------
Assay: Plasma pharmacokinetics after single intravenous and oral dose
Type: in vivo, male BALB/c mice
Settings: male, BALB/c, mouse, plasma, iv, 1 mg/kg, IV 1 mg/kg, 0.5 hr; read-out: Plasma concentration, Mean
QUANTITY_MEASURED: concentration at 0.5 hr (ng/mL)
Use ng/mL as the unit, but write only the number.

Record Cn1c(=O)c2c(ncn2CC(=O)Nc2ccc(-c3ccccc3O)nn2)n(C)c1=O [Compound 1] , field concentration at 0.5 hr: 915

----------
Test: Plasma pharmacokinetics after single intravenous and oral dose
Type: in vivo, male BALB/c mice
Conditions: male, BALB/c, mouse, plasma, po, 5 mg/kg, PO 5 mg/kg, 24 hr; average of two values
QUANTITY_MEASURED: concentration at 24 hr
Don't forget the unit after the number, please.

// concentration at 24 hr value for `Cn1c(=O)c2c(ncn2CC(=O)Nc2ccc(-c3ccccc3O)nn2)n(C)c1=O` : 1.8 ng/mL

----------
Assay: Plasma pharmacokinetics after single intravenous and oral dose
Assay type: in vivo, male BALB/c mice
Conditions: male, BALB/c, mouse, plasma, iv, 1 mg/kg, IV 1 mg/kg, 4 hr; read-out: Plasma concentration, individual animals
QUANTITY_MEASURED: concentration at 4 hr (ng/mL)
Quick note: give the figure in ng/mL, leave out the unit.

Noted for `Cn1c(=O)c2c(ncn2CC(=O)Nc2ccc(-c3ccccc3O)nn2)n(C)c1=O` : its concentration at 4 hr reads 39.2

----------
Assay: Plasma pharmacokinetics after single intravenous and oral dose
Type: in vivo, male BALB/c mice
Conditions: male, BALB/c, mouse, plasma, iv, 1 mg/kg, IV 1 mg/kg, 0.08 hr
QUANTITY_MEASURED: concentration at 0.08 hr (ng/mL)
Numeric answer only, unit ng/mL assumed.

Field concentration at 0.08 hr (entry `Cn1c(=O)c2c(ncn2CC(=O)Nc2ccc(-c3ccccc3O)nn2)n(C)c1=O` ) reads 2000

----------
Experiment: Plasma pharmacokinetics after single intravenous and oral dose
Assay type: in vivo, male BALB/c mice
Settings: male, BALB/c, mouse; IV 1 mg/kg, plasma
QUANTITY_MEASURED: AUC(0-t)
# answer = value followed by unit

`Cn1c(=O)c2c(ncn2CC(=O)Nc2ccc(-c3ccccc3O)nn2)n(C)c1=O` has a reported AUC(0-t) of 1480 ng·h/mL

Cited source for all entries: patent US11186581B2
